# MEASUREMENT_TARGET: T1, human serum albumin (human, UniProt P02768 25-609)
# T1 construct: also called HSA
# T1 sequence (P02768 25-609 limits assumed): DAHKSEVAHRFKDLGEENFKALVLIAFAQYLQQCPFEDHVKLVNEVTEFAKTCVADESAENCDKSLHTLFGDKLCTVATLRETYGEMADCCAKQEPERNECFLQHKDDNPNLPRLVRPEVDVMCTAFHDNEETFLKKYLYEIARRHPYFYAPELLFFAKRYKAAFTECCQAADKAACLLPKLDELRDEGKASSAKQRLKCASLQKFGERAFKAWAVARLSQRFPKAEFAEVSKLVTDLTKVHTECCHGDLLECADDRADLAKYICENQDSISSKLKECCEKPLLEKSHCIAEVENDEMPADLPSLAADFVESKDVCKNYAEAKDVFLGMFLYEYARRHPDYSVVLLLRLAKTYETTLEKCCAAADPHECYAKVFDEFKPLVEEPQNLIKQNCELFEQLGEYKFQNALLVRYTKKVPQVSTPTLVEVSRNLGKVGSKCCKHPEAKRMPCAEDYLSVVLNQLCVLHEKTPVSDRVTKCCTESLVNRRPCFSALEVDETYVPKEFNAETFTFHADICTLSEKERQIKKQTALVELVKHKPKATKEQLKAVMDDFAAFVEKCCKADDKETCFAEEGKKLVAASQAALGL
# ASSAY_DETAILS: SPR (Biacore), albumin captured on chip, SABA in flow
PROPERTY_MEASURED: koff (s⁻¹)
Give just the numeric value; s⁻¹ need not be written.

Would you please look over these solved cases?
{"BINDER": "SABA1.1 (designed binder, also called clone 1318H04) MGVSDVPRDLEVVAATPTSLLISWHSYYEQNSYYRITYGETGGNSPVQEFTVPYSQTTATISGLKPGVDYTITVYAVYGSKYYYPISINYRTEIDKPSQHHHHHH", "RESULT_NUMBER": 0.000457}
{"BINDER": "SABA2.1 (designed binder) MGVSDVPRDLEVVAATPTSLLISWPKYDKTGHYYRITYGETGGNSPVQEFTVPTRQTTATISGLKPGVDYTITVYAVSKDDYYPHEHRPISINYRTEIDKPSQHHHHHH", "RESULT_NUMBER": 0.000171}
{"BINDER": "SABA3.1 (designed binder, also called clone 1245H07) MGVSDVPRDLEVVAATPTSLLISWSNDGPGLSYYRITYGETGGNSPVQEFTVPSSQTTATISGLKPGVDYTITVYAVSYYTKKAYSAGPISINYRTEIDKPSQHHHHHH", "RESULT_NUMBER": 0.0682}

Could you now consider this next binder?
Returns the measured koff for the input binder. Input: SABA4.1 (designed binder, Carries a scaffold mutation; SABA5 is the scaffold-perfect version) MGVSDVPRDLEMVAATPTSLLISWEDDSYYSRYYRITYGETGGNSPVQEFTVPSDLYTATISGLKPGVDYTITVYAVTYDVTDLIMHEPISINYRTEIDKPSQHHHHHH
0.000782
